The reported numbers originate from PubChem BioAssay (NCI).

# Test system: RXF 393 renal
# assay_procedure: NCI-60 one-dose screen, 48 h (100 = growth as untreated, 0 = no growth, -100 = all killed)
# conditions: 10 µM
# Method: Cells are grown in 96 well plates and exposed to the test compound for 48 hours. Compounds are tested at a single concentration, which is 10^-5 M for most compounds. The reported endpoint is percent growth (GI% or GIPRCNT), where numbers from 0 - 100% represent growth inhibition, and numbers from -100% - 0 represent cell death. For example, a value of 40 represents 60% growth inhibition. A value of 0 means no net growth occurred over the course of the experiment. […]
The panel holds about 83,000 compounds, 20% with a hit somewhere; the sample as a whole holds those more often.
So I've got a bunch of compounds here, and I need their growth values.
Only the number, expressed in %, is required.

Prompt: RXF 393 renal / growth / CCCCC/C=C/C/C=C/CCCCCCCC1=NC(C)(C)CN1C(C)C : value?
Response: 25.1

Prompt: RXF 393 renal / growth / CCCCN1C(=O)CC(SC2CC(=O)N(CCCC)C2=O)C1=O (stereo not given) : value?
Response: 122

Prompt: RXF 393 renal / growth / O=C1/C=C/[C@@H](O)[C@@H]2C[C@@H](O)C[C@H]2/C=C/CCC[C@H](CCc2ccc(C(F)(F)F)cc2)O1 : value?
Response: -31.6

Prompt: RXF 393 renal / growth / CCOC(=O)Cn1c(=O)c2sc3ncccc3c2n2nnc(-c3ccccc3)c12 : value?
Response: 112

Prompt: RXF 393 renal / growth / CC(=O)Nc1cc2c(cc1Cl)Cc1cc(Cl)ccc1-2 : value?
Response: 98.7

* * *

# Tested on: KM12 colon
# assay_procedure: NCI-60 one-dose screen, 48 h
# conditions: 10 µM
This is part of a sample that, as a whole, favours compounds with a hit. Of some 83,000 tested, about 20% had one in any assay. Active and inactive are the calls of the source. How the source made its calls: active means growth percent below 10; inactive means the rest.
// one of active, inactive, no free text

Prompt: What was the test verdict on O=S(=O)(NCCCNc1nccc(-c2cn(-c3ccccc3)nc2-c2ccc(Cl)c(O)c2)n1)c1ccccc1 ?
Response: inactive

Prompt: What was the test verdict on CCC(CC)n1c(C)cc(=O)n1C(CC)CC ?
Response: inactive

Prompt: What was the test verdict on O=S(=O)(O)c1ccc(Cl)cc1 ?
Response: inactive

Prompt: What was the test verdict on CN1CCN(c2cc3c(cc2F)c(=O)c(C(=O)O)cn3-c2ccc(F)cc2)CC1 ?
Response: inactive

Prompt: What was the test verdict on Cc1ccc(C(=O)/C=C/c2ccccc2)s1 ?
Response: inactive

Prompt: What was the test verdict on Clc1ccc(/C=C2\CCCC3C2=Nc2ccccc2NC3c2ccc(Cl)cc2)cc1 (stereo not drawn) ?
Response: inactive

Prompt: What was the test verdict on COc1ccc(-c2cc(-c3cc(OC)ccc3OC)nc(N)c2C#N)cc1 ?
Response: inactive

Prompt: What was the test verdict on CCN(CC)CC(=O)N(CC)c1ccc(C)c(Cl)c1 ?
Response: inactive

Prompt: What was the test verdict on O=c1c(Br)ccc(Br)cc1Br ?
Response: active

Prompt: What was the test verdict on O=C1c2ccccc2C(=O)c2c1ccc(C(Br)Br)c2[N+](=O)[O-] ?
Response: inactive

Prompt: What was the test verdict on COc1cc(Cc2cc(-c3ccccc3)n[nH]c2=O)cc(OC)c1OC ?
Response: inactive

Prompt: What was the test verdict on CC(=O)N[C@H](C(=O)N[C@@H](CCCNC(=N)N)C(=O)N[C@@H](CCCCN)C(=O)N[C@@H](CCCNC(=N)N)C(=O)N[C@]1(C)CCCCCC/C=C\CCC[C@@](C)(C(=O)N[C@@H](CCCNC(=N)N)C(=O)N[C@@H](CCC(=O)O)C(=O)N[C@@H](CC(C)C)C(=O)N[C@H](C(=O)N[C@@H](CCC(=O)O)C(N)=O)C(C)C)NC(=O)[C@H](CCC(N)=O)NC(=O)[C@H](CC(C)C)NC(=O)[C@H](CC(C)C)NC(=O)[C@H](CCCNC(=N)N)NC(=O)[C@H](CCCNC(=N)N)NC(=O)[C@H](CC(C)C)NC1=O)C(C)C ?
Response: active

Prompt: What was the test verdict on Cc1cc(C(C#N)c2ccc(Cl)cc2)c(Cl)cc1NC(=O)c1cc(I)cc(I)c1O (stereo not drawn) ?
Response: inactive

Prompt: What was the test verdict on CC(=O)Nc1cc2c(cc1Cl)Cc1cc(Cl)ccc1-2 ?
Response: inactive

Prompt: What was the test verdict on O=C(CCCNC(=O)c1nc(-c2ccccc2)n(-c2ccccc2)n1)NO ?
Response: inactive

Prompt: What was the test verdict on CCCCCCCCCCCCCCCCCC[n+]1ccc2c(C)c3c(c(C)c2c1)c1cc(O)ccc1n3CC ?
Response: inactive

Prompt: What was the test verdict on C[n+]1c2ccccc2nc2ccccc21 ?
Response: inactive

Prompt: What was the test verdict on CC(C)[N+]1(C)C2CC[C@@H]1CC(OC(=O)C(CO)c1ccccc1)C2 (stereo partly drawn) ?
Response: inactive
